tested on: CV-A24; experiment: microbe, parasite or virus in culture; type: cell-based, coxsackievirus A24; details: Enterovirus C, CVA24, HeLa R19, read-out: EC50 CV-A24
endpoint: EC50

A selection of reference data follows.
[
  {
    "molecule": "O=C(c1ccco1)N(Cc1ccccc1)c1ccc(C(F)(F)F)cc1 [Compound 19i]",
    "tested.on": "CV-A24",
    "endpoint": "EC50",
    "assay.result": "> 30 µM"
  },
  {
    "molecule": "O=C(c1ccco1)N(Cc1ccc(F)cc1)c1ccccc1 [Compound 19b]",
    "tested.on": "CV-A24",
    "endpoint": "EC50",
    "assay.result": "6.39 µM"
  },
  {
    "molecule": "O=C(c1ccco1)N(Cc1ccc(C(F)(F)F)cc1)c1ccccc1 [Compound 19d]",
    "tested.on": "CV-A24",
    "endpoint": "EC50",
    "assay.result": "19.5 µM"
  },
  {
    "molecule": "COc1ccc(N(Cc2ccccc2)C(=O)c2ccco2)cc1 [Compound 19c]",
    "tested.on": "CV-A24",
    "endpoint": "EC50",
    "assay.result": "> 30 µM"
  },
  {
    "molecule": "COc1ccc(N(Cc2ccc(F)cc2)C(=O)c2ccc[nH]2)cc1",
    "tested.on": "CV-A24",
    "endpoint": "EC50",
    "assay.result": "> 30 µM"
  }
]

What value of EC50 has been reported for the following molecule? COc1ccc(N(Cc2ccc(F)cc2)C(=O)c2ccco2)cc1
> 30 µM
